- Test system: HS 578T breast
- assay: NCI-60 one-dose screen, 48 h
- testSettings: 10 µM
The panel holds about 83,000 compounds, 20% with a hit somewhere; the sample as a whole holds those more often. Calls of active or inactive are those of the source. How the source made its calls: active means growth percent below 10; inactive means the rest.
Can you answer with just one of these options? 1 (yes) for active, 0 (no) for inactive

Please review the following examples before continuing.
I would be grateful if you could indicate the recorded call for COc1ccccc1/C=N\NC(=S)Nc1ccc(F)cc1 . 0 (no)

Same for COc1ccc2[nH]c(O)c(/C=c3/ccc4c(c3)N=C(c3ccc(C(F)(F)F)cc3)N=4)c2c1 0 (no)

Do the same for CNCCCNc1ccnc2cc(Cl)ccc12 please 1 (yes)

Also need CCOc1cccc(/C=N/NC(=O)c2ccc(Nc3ccnc(C(F)(F)F)c3)cc2)c1O , thanks. 0 (no)

New cases:
Please state the recorded outcome for this compound: FC1(F)CCN(Cc2c[nH]c3cc(Cl)ccc23)C[C@H]1CCc1ccccc1 0 (no)

Would you kindly repeat that for COc1ccc(/C(=C\c2ccc3c(c2)OCO3)C(=O)Nc2nc3ccccc3s2)cc1 ? 0 (no)

Next: COc1cc2c(cc1C)NC(=O)/C2=C\c1c[nH]c2ccccc12 0 (no)

Item: NC(=O)Nc1ccc2ncnc(Nc3cccc(O)c3)c2c1 0 (no)

Field entry: N#Cc1nc(-c2cccc(Br)c2)cc(-c2ccc(Nc3nc(N4CCCCC4)nc(N4CCCCC4)n3)cc2)c1N 1 (yes)

---

- System: OVCAR-5 ovarian
- assay: NCI-60 one-dose screen, 48 h
- testSettings: 10 µM unless noted
Compounds without any hit were thinned out: in the full panel of roughly 83,000, 20% have a hit. Active and inactive are the calls of the source. How the source made its calls: active means growth percent below 10; inactive means the rest.
Respond only with the outcome that fits, drawn from T for active, F for inactive

Examples with answers:
Status in this test for CO[C@@]12[C@@H]3NC3CN1C1=C(C(=O)C(N)=C(C)C1=O)[C@@H]2COC(N)=O (stereo partly specified) ? F

Another molecule to check: Oc1[nH]c2ccccc2c1/C=c1/ccc2c(c1)N=C(c1ccc(C(F)(F)F)cc1)N=2 F

Next molecule: CCCc1cc2c(cc1CN(Cc1cc3c(cc1CCC)OCO3)C(=N)OCC)OCO2 F

Others:
Check the results log: what was the call for CC(C)c1[nH]ncc1-c1nc2ccc3[nH]ncc3c2c2c1CCCC2 ? F

Next record, please: CCCCCCCCCCCC1=NC(C)(C)CN1C(C)(C)CO F

Request: COc1ccc2c(c1)N(CCO)C1=C(C(=O)OC1)C2c1cccc(Br)c1 (stereo unspecified) F

Would you mind doing Cn1c(=O)c2[nH]c(Cc3ccc4c(c3)OCO4)nc2n(C)c1=O as well? F

Another: CCc1ccc(Nc2cc(C)c3ccc(O)cc3n2)cc1 F

Another molecule to look at: C[C@@H]1C[C@H](N)C[C@H](c2ccncc2NC(=O)c2ccc(F)c(-c3c(F)cccc3F)n2)C1 F

Let us now turn to C#CC[C@@H]1C[C@]2(C)[C@H]3CC=C4[C@H]5[C@@H](C)[C@H](C)CC[C@]5(C(=O)NCCCCCCCCN)CC[C@@]4(C)[C@]3(C)CC[C@H]2C(C)(C)[C@H]1OC(C)=O F

Do the same for Fc1cc(-c2nnc3sc(-c4ccc(Cl)cc4)nn23)c(Cl)cc1Cl please F

---

- System: SF-539 CNS
- assay: NCI-60 one-dose screen, 48 h (100 = growth as untreated, 0 = no growth, -100 = all killed)
- testSettings: 10 µM unless noted
The panel holds about 83,000 compounds, 20% with a hit somewhere; the sample as a whole holds those more often.
Think of 60% as a floor: if growth stands on it or above, it is fulfilled; beneath it, not fulfilled.

Does the compound COc1ccc([C@@H]2[C@@H](Oc3ccccc3)C(=O)N2c2cc(OC)c(OC)c(OC)c2)cc1F have recorded growth that is 60% or more? not fulfilled

---
Form field: growth at least 60%? Entry: O=C(/C=C/c1ccccc1)C(Br)C(Br)c1ccccc1 (configuration not stated) not fulfilled

Moving on to the next compound: Clc1ccc2c(c1)-c1ccccc1C1=NCCN12 not fulfilled

Can you check C/C(=N\NC(=S)N1CCCCC1)c1ccccn1 next? not fulfilled

Same thing, different compound: COc1cccc(OCC(O)CN2CCN(c3ccccc3)CC2)c1 (configuration not stated) fulfilled

CCCc1n(Cc2ccc3ccccc3c2)c2ccccc2[n+]1Cc1ccc2ccccc2c1 , same question. not fulfilled

Then what about the compound Fc1cnccc1-c1nc2ccc3[nH]ncc3c2c2c1CCCC2 ? not fulfilled

Cool, now C#CC[C@@H]1C[C@]2(C)[C@H]3CC=C4[C@H]5CC(C)(C)CC[C@]5(C(=O)NCCCCN)CC[C@@]4(C)[C@]3(C)CC[C@H]2C(C)(C)[C@H]1OC(C)=O fulfilled

How about COc1cc(/C=C/c2ccc3c(Br)cc(Br)c(O)c3n2)ccc1O ? not fulfilled

Then this compound: Cc1nc([C@H]2CC[C@H]3[C@@H]4CCC5=CC(=O)CC[C@]5(C)[C@H]4CC[C@]23C)cs1 fulfilled

Param item: CCc1ccc(-c2ccc(NC3CCCCCC3)nn2)cc1S(N)(=O)=O fulfilled

For CC(=O)N1N=C(c2ccc(C)cc2)CC1c1cn(-c2ccccc2)nc1-c1cccc(Nc2ccnc3cc(Cl)ccc23)c1 (configuration not stated) then? fulfilled

Moving on to the next compound: COc1cc2nccc(Oc3ccc(NC(=O)C4(C(=O)Nc5c(F)cc(F)cc5F)CC4)cc3)c2cc1Oc1ccc(N)cn1 not fulfilled

// same read-out, input: Brc1ccccc1Cn1c(-c2cncs2)nc2ccccc21 fulfilled

Try the compound Clc1ccc(Nc2ncnc3c2sc2ncccc23)cc1 not fulfilled

---

Please respond with reported growth for every item in the list.
- Test system: OVCAR-4 ovarian
- assay: NCI-60 one-dose screen, 48 h (100 = growth as untreated, 0 = no growth, -100 = all killed)
- testSettings: 10 µM unless noted
The panel holds about 83,000 compounds, 20% with a hit somewhere; the sample as a whole holds those more often.
Give bare numbers, in %.

Example entries begin here.
Quick one: growth for CN(C)CCOc1nc2c3cccnc3cc(-c3cccc(Cl)c3)c2c2ncccc12 ? 20.6

Record: O=C(Nc1ccc(OS(=O)(=O)c2ccc(F)cc2)cc1)C12CC3CC(CC(C3)C1)C2 54.4

Entry to check: Cc1ccc2oc(=O)cc(-c3nc4ccc([N+](=O)[O-])cc4[nH]3)c2c1 31.3

Let us now turn to COc1cc(/C=C/c2ccc3c(Br)cc(Br)c(O)c3n2)ccc1O 17.4

Same thing, different compound: NC(N)=N/N=C\c1cccc(OCc2ccccc2)c1 64.3

For each of the items listed, what is its growth?
1. CN(C)c1ccc(C(c2ccccc2)c2ccc(N(C)C)cc2)cc1
2. CCC1CCc2nc3sc(C(=O)Nc4cccc(F)c4)c(N)c3cc2C1 (stereo not given)
3. COc1cc(-c2nc(-c3nc4cc(C(=O)c5ccccc5)ccc4[nH]3)cc3c2[nH]c2ccccc23)cc(OC)c1OC
4. COc1cccc(Cn2c(-c3nonc3NC(C)=O)nc3ccccc32)c1
5. NCCCOc1cc2ccccc2cc1C(=O)NCCCOc1cc2ccccc2cc1C(=O)Nc1ccc(Cl)cc1O

1: 99.8; 2: 99.2; 3: 96.8; 4: 79.9; 5: -77.4

---

- Tested on: SN12C renal
- assay: NCI-60 one-dose screen, 48 h (100 = growth as untreated, 0 = no growth, -100 = all killed)
- testSettings: 10 µM unless noted
About 83,000 compounds went through this panel and 20% of them were active in at least one assay; those are over-represented in the sample as a whole.
We use 40% as the dividing line for growth: on or above the line is 1, below is 0.

Known results for compounds:
Textbook exercise: given the entry CC(=O)OC1Oc2cc(C)c(C)cc2-c2oc(=O)c(-c3cc4ccccc4oc3=O)cc21 (stereo unspecified) , state whether its growth is greater than or equal to 40%. 1

Try this compound next: O=C1CC2(O)CSc3nc(=O)cc(n32)N1 (stereo unspecified) 1

Do the same for Clc1ccc(Nc2ncnc3c2sc2ncccc23)c(Cl)c1 please 0

Record: O=C(C=P(c1ccccc1)(c1ccccc1)c1ccccc1)CCl 0

And for C#CCNC(=S)N/N=C(\C)c1ccccn1 ? 0

Here is the next compound: COc1ccc(-c2nc3ccc(Cc4ccc5nc(-c6ccc(OC)cc6)[nH]c5c4)cc3[nH]2)cc1 1

Further, for CN1CCN(Cc2ccc(NC(=O)c3cncc(C#Cc4ncc5ccccn45)c3)cc2C(F)(F)F)CC1 ? 0

Likewise for COc1ccc2[nH]cc(C(c3ccc(Cl)cc3)N3CCCC3)c2c1 (stereo unspecified) ? 1

Another: O=C(/C=C/c1ccccc1)C(Br)C(Br)c1ccccc1 (stereo unspecified) 1

Try NC(N)=N/N=C\c1ccc(OCc2ccccc2)cc1 next. 1

Please examine the following record next.
Has COc1ccc(C2=NN(C=O)C(c3ccc(OS(=O)(=O)c4ccc(C)cc4)c(OC)c3)C2)cc1 (stereo unspecified) a recorded growth greater than or equal to 40%? 1
